Target: Cruzipain (Trypanosoma cruzi)
Test: Inhibition of Trypanosoma cruzi cruzaine in presence of 0.01% Triton X-100
Calls of active or inactive are those of the source. No cut-off for these calls is given here.
Quantity: inhibition

{"Compound": "O=C1CS/C(=N/N=C/CSc2ccc(Br)cc2)N1", "inhibition": "Active"}
{"Compound": "Cc1ccc(SC/C=N/N=C2\\NC(=S)C(C)S2)cc1 (stereo not drawn)", "inhibition": "Active"}
{"Compound": "CCC1S/C(=N/N=C(\\C)CSc2ccc(Cl)cc2)NC1=O (stereo not drawn)", "inhibition": "Active"}
{"Compound": "CC1S/C(=N/N=C/CCSc2ccccc2)NC1=O (stereo not drawn)", "inhibition": "Active"}
{"Compound": "O=C1CS/C(=N/N=C/CSc2ccc(Cl)cc2)N1", "inhibition": "Active"}
{"Compound": "CCC1S/C(=N/N=C(\\C)CSc2ccc(C)cc2)NC1=O (stereo not drawn)", "inhibition": "Active"}
{"Compound": "CCC1S/C(=N/N=C/CSc2ccc(Br)cc2)NC1=O (stereo not drawn)", "inhibition": "Active"}
{"Compound": "NC(=S)N/N=C/CCc1ccccc1", "inhibition": "Active"}

Requested read-out: inhibition. Entry: CC1S/C(=N/N=C/CCSc2ccccc2)NC1=S (stereo not drawn)
Active

Another: "NC(=S)N/N=C/C=C/c1ccccc1"
Active

And for Cc1ccc(SC/C=N/N=C2\NC(=O)C(C)S2)cc1 (stereo not drawn) ?
Active

Another: "O=C1CS/C(=N/N=C/C=C/c2ccccc2)N1"
Active

Proceed to "NC(=S)N/N=C/CSc1ccccc1"
Active
